The measured values listed here are drawn from paper PMC9007940.

- experimental.target: metabotropic type 5 glutamate receptor (mGluR5) (Homo sapiens, UniProt P41594)
- Sequence (P41594 21-1212): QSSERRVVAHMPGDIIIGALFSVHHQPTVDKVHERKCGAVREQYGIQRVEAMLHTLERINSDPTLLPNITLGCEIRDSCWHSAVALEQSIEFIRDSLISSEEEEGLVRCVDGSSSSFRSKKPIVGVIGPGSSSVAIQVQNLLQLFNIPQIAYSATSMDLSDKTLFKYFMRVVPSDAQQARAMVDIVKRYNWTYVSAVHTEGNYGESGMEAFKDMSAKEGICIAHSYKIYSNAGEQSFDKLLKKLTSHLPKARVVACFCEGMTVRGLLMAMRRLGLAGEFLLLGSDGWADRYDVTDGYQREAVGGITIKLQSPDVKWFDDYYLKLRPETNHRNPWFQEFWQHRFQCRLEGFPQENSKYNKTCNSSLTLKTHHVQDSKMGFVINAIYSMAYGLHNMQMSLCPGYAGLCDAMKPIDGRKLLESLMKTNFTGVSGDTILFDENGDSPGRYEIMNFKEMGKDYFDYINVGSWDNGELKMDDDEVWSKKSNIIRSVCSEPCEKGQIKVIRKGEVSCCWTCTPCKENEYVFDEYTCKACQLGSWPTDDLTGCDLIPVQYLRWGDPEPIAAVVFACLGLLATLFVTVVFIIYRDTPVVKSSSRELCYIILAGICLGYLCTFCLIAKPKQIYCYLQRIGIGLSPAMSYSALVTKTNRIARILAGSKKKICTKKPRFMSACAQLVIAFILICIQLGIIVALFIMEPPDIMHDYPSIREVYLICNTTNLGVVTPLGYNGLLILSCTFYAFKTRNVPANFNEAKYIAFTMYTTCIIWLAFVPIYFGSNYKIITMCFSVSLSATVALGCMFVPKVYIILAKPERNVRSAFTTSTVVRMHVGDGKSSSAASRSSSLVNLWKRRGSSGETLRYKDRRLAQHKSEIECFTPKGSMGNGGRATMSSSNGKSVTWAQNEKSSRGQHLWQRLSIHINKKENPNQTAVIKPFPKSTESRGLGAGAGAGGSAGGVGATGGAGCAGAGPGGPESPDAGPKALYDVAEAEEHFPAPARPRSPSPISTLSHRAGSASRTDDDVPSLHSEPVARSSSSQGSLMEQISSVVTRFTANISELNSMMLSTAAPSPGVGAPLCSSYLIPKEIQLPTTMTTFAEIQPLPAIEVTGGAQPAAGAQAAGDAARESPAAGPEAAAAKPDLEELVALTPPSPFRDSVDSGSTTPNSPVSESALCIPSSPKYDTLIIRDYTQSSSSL
- assay.remarks: GCaMP6s calcium imaging dose-response (AUC) in primary human OPCs, endogenous receptor
measurement.label: EC50 (mM)
Only the number, expressed in mM, is required.

Could you share what EC50 was measured for NC(C(=O)O)c1cc(O)ccc1Cl (stereo not shown) , tested on metabotropic type 5 glutamate receptor (mGluR5) (Homo sapiens, UniProt P41594)?
1.3
